Can you tell me pKi for the items I'm about to list?
system_tested: UniProt:P19221
pKi: −log10 of the molar value. Where a SMILES comes first, the peptide text is derived from it. Bridges are numbered along the chain shown (N, C = ends). [ ]: non-standard residue; d: D form. Ala(1-amidino-4-piperidyl) = N=C(N)N1CCC(C[C@H](N)C(=O)O)CC1

| molecule | pKi |
| --- | --- |
| CC(C)C[C@@H]1NC(=O)[C@H](C)NC(=O)[C@H](CC2CCN(C(=N)N)CC2)NC(=O)[C@H](Cc2ccccc2)NC(=O)[C@H](CCCNC(=N)N)NC(=O)[C@H](C)NC(=O)[C@@H]2CCCN2C(=O)[C@@H](N)CSSC[C@@H](C(=O)O)NC(=O)[C@H](Cc2ccccc2)NC1=O (H-CPARF[Ala(1-amidino-4-piperidyl)]ALFC-OH; disulfide 1-10) | < 3.00 |

Next up:
query: Tell me the measured pKi of CC(C)C[C@@H]1NC(=O)[C@H](C)NC(=O)[C@H](CC2CCN(C(=N)N)CC2)NC(=O)[C@H](Cc2ccccc2)NC(=O)[C@H](CCCNC(=N)N)NC(=O)[C@H](C)NC(=O)[C@@H]2CCCN2C(=O)[C@@H](N)CSSC[C@@H](C(=O)O)NC(=O)[C@H](Cc2c[nH]c3ccccc23)NC1=O (H-CPARF[Ala(1-amidino-4-piperidyl)]ALWC-OH; disulfide 1-10) , please.
result: < 3.00
